B1: SOAT2 (parent)
chain: SLGKQKVFIIRKSLLDELMEVQHF

Variants of: B1
assay_summary: protein stability index of a GFP-peptide fusion (GPS, HEK-293T) (PSI 1-6); higher = more stable;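 also: lentivirally expressed fusions sorted by FACS into six bins by GFP to DsRed ratio, PSI derived from sequencing read proportions per bin multiplied by bin number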
condition_context: c terminus: a fixed tail appended
measurement_kind: protein stability index
Give a plain numeric answer without units written out.

Check out these entries, answers already filled in.
K12F 3.49
E17M 2.7
D16P 2.02
F8V 1.6
L2C 3.02
M19R 1.94

From here, focus on the item given below.
Consider the variant shown here: K12V What is its recorded protein stability index?
3.02

Each recorded value in this set is attributed to the supplement of paper PMC10567573.
